The following variants are listed with their measured protein stability index values.
B1: SLC22A15 (parent)
chain: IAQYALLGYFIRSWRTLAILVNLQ

- Variants of: B1
- testMethodNotes: protein stability index of a GFP-peptide fusion (GPS, HEK-293T) (PSI 1-6); higher = more stable;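 note: lentivirally expressed fusions sorted by FACS into six bins by GFP to DsRed ratio, PSI derived from sequencing read proportions per bin multiplied by bin number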
- assayConditions: c terminus: a fixed tail appended

Solved entries:
sequenceChain	result
IAQYALLGYFIGSWRTLAILVNLQ [R12G]	2.97
IAQYALLGYFIRSWRTLAIQVNLQ [L20Q]	3.19
IAQYALLGYCIRSWRTLAILVNLQ [F10C]	2.86
IAQYALLGYFISSWRTLAILVNLQ [R12S]	3.61
IAQYALLGYFIRSWRTLAILVNLT [Q24T]	3.58
IAQYALLGYFIRSWRTSAILVNLQ [L17S]	3.35
IAQYALIGYFIRSWRTLAILVNLQ [L7I]	1.71
IAQYALLGYFIRSWRTLAILVNTQ [L23T]	3.08

Endpoint output: protein stability index of IARYALLGYFIRSWRTLAILVNLQ [Q3R] . Value? 4.63

Endpoint output: protein stability index of IAVYALLGYFIRSWRTLAILVNLQ [Q3V] . Value? 4.91

Endpoint output: protein stability index of IAQYALLGYFIRSWRTLRILVNLQ [A18R] . Value? 2.01

Endpoint output: protein stability index of IAQYALQGYFIRSWRTLAILVNLQ [L7Q] . Value? 2.52

Endpoint output: protein stability index of IAQYALLGYFIRSWRTLPILVNLQ [A18P] . Value? 3

Endpoint output: protein stability index of IAQYALLGYFIRSWRTLAILVNLF [Q24F] . Value? 2.7

Endpoint output: protein stability index of IAQYALLGYFIRSWRTLAILVYLQ [N22Y] . Value? 1.37

Endpoint output: protein stability index of IAQYALLGYFIRSPRTLAILVNLQ [W14P] . Value? 3.8
